This collection of values is drawn from the METLIN SMRT retention time set (Domingo-Almenara et al. 2019).

experimental details: gradient 5% acetonitrile 3 min, to 50% in 2 min, to 85% in 15 min, held 3 min, 100 µL/min
recorded conditions: column: Zorbax Extend-C18 2.1 x 50 mm; eluents: water / acetonitrile, 0.1% formic acid
Give RP-LC retention time for every item shown.
State the answer as a number, implicitly in s.

Q) For "Fc1ccc(-c2noc(Cn3ccnc3)n2)cc1Br" , write its RP-LC retention time.
A) 650

Q) For "Cc1ccc(NS(=O)(=O)c2cc3n(c2)CCCNC3=O)cc1C" , write its RP-LC retention time.
A) 658

Q) For "Cc1sc(-c2cc(C(F)(F)F)[nH]n2)cc1S(=O)(=O)N1CCN(c2cccc(Cl)c2)CC1" , write its RP-LC retention time.
A) 1230

Q) For "CCn1ccc(C(=O)Nc2ccc3c(c2)Sc2ncccc2C(=O)N3C(C)C)n1" , write its RP-LC retention time.
A) 790

Q) For "COc1ccc(CNC(=O)CN2CCN(Cc3ccc(F)cc3)C2=O)c(OC)c1" , write its RP-LC retention time.
A) 793

Q) For "CCc1cc(N2CCN(C(=O)c3ccc(N(C)C)cc3)CC2)nc2nnc(C)n12" , write its RP-LC retention time.
A) 599

Q) For "O=S(=O)(Nc1ccc(F)cc1)c1cccnc1Nc1ccc(Cl)cc1" , write its RP-LC retention time.
A) 1120

Q) For COc1cccc(OC)c1C(=O)N1CCCC1c1cc(C)on1 (stereo not drawn) , write its RP-LC retention time.
A) 679

Q) For CCN1C(=O)c2ccccc2S(=O)c2ccc(C(=O)N3CCN(c4ccccn4)CC3)cc21 (stereo not drawn) , write its RP-LC retention time.
A) 595

Q) For "O=C(Cn1c(=O)oc2ccccc21)N1CCc2nn(CC3CC3)c(=O)n2CC1" , write its RP-LC retention time.
A) 682

Q) For "COc1ccc2c(c1)-c1nc(NC(=O)c3ccccc3C)sc1CC2" , write its RP-LC retention time.
A) 1130

Q) For "CCOC(=O)c1ccc(Nc2nc(C(=O)OCC)nc3ccccc23)cc1" , write its RP-LC retention time.
A) 896

Q) For "C=CCn1nc2ccc(S(=O)(=O)N3CCCCC3)cn2c1=O" , write its RP-LC retention time.
A) 778

Q) For "CCc1ccc(-c2cn3cc(C(=O)NCCN4CCN(CC)CC4)ccc3n2)cc1" , write its RP-LC retention time.
A) 576

Q) For "Cc1ccc(F)cc1NC(=O)Cn1nc2c(Oc3cccc(F)c3)nccn2c1=O" , write its RP-LC retention time.
A) 829

Q) For Cc1nn(-c2nc3ccccc3[nH]2)c2c1C(=O)CC(c1ccc(F)cc1)C2 (stereo not drawn) , write its RP-LC retention time.
A) 1000

Q) For "Nc1c(C(=O)c2ccccc2)sc2[nH]c(=O)c(C(=O)O)cc12" , write its RP-LC retention time.
A) 733

Q) For "O=C(Cn1cc(-c2ccccc2)c2ncnc(N3CCCCC3)c21)Nc1ccccc1" , write its RP-LC retention time.
A) 798

Q) For Cc1ccc(CC(=O)NC(C)C(=O)Nc2nc3ccccc3[nH]2)cc1 (stereo not drawn) , write its RP-LC retention time.
A) 665

Q) For "Cc1sc2ccn(Cc3ccc(F)cc3)c(=O)c2c1C(=O)NCCN1CCN(C)CC1" , write its RP-LC retention time.
A) 591

Q) For "Cc1ccc(NC(=O)CN2C(=O)CCCc3cc(S(=O)(=O)N4CCCCC4)ccc32)cc1F" , write its RP-LC retention time.
A) 953

Q) For "COCCCNC(=O)c1ccc(N2CCCN(Cc3ccccc3C)C2=O)cc1" , write its RP-LC retention time.
A) 769

Q) For "O=C(CN1C(=O)c2ccccc2C1=O)NCc1nnnn1-c1ccc(Cl)cc1" , write its RP-LC retention time.
A) 722

Q) For O=C1Nc2cc(C(=O)N3CCN(Cc4ccc5c(c4)OCO5)CC3)ccc2N2CCCCC12 (stereo not drawn) , write its RP-LC retention time.
A) 624

Q) For CCn1ccc(C(=O)N2CCCC2c2cccc(F)c2)n1 (stereo not drawn) , write its RP-LC retention time.
A) 840

Q) For "CCN(CC)CCCNC(=O)C1CCN(C(=O)c2oc3cc4sc(N(C)C)nc4cc3c2C)CC1" , write its RP-LC retention time.
A) 564

Q) For "O=C(NCCN1CCCCC1)c1cc2c(s1)CCN(C(=O)c1ccc(Cl)cc1)C2" , write its RP-LC retention time.
A) 650

Q) For "O=C(c1ccc(Cl)c(Cl)c1)N1CCN(c2ccc(-c3ccco3)nn2)CC1" , write its RP-LC retention time.
A) 733

Q) For "Cc1ccc(NC(=O)Cn2cnc3c(sc4nc(-c5ccccc5)ccc43)c2=O)cc1Cl" , write its RP-LC retention time.
A) 1120

Q) For Cc1cccc2nnc(N3CCCC(C(=O)NCc4cccs4)C3)n12 (stereo not drawn) , write its RP-LC retention time.
A) 659

Q) For "COc1cc(NC(=O)Cn2nc(N3CCC(C)CC3)c3ccccc3c2=O)cc(OC)c1" , write its RP-LC retention time.
A) 1110

Q) For "CCC(=O)Nc1ccc(CCc2nc3ccc(C(=O)NC4CC4)cc3[nH]2)cc1" , write its RP-LC retention time.
A) 582

Q) For "CNC(=O)c1noc([C@@H]2CC(F)(F)CN2Cc2cccn2C)n1" , write its RP-LC retention time.
A) 590

Q) For "CSc1cccc(NC(=O)Nc2cccc(-c3ccc(N4CCOCC4)nn3)c2)c1" , write its RP-LC retention time.
A) 742

Q) For "CCn1cc(-c2nc(-c3ccc(OC)cc3OC)no2)c(=O)c2cc(F)ccc21" , write its RP-LC retention time.
A) 830

Q) For "COc1ccc(S(=O)(=O)Nc2cc(-c3cn4cccc(C)c4n3)ccc2C)cc1C" , write its RP-LC retention time.
A) 707

Q) For "CCOC(=O)c1oc2ccccc2c1NC(=O)c1ccccc1S(C)(=O)=O" , write its RP-LC retention time.
A) 800

Q) For "CSc1ccc(NC(=O)N2CCN(c3cnn4c(C)nnc4c3)CC2)cc1" , write its RP-LC retention time.
A) 576

* * *

experimental details: gradient 5% acetonitrile 3 min, to 50% in 2 min, to 85% in 15 min, held 3 min, 100 µL/min
recorded conditions: column: Zorbax Extend-C18 2.1 x 50 mm; eluents: water / acetonitrile, 0.1% formic acid
Please use class 1 whenever RP-LC retention time is not below 700 s, and class 0 whenever it is.

Q) Determine whether measured RP-LC retention time meets or exceeds 700 s for "Cc1nn(CC(=O)NCCN(C)Cc2ccccc2)c(=O)c2noc(C)c12"
A) class 0

Q) Determine whether measured RP-LC retention time meets or exceeds 700 s for CC(=O)SCC(Cc1ccccc1)C(=O)NCC(=O)OCc1ccccc1 (stereo not given)
A) class 1

Q) Determine whether measured RP-LC retention time meets or exceeds 700 s for "CCN1CCCn2cc(S(=O)(=O)Nc3ccc(C)c(F)c3)cc2C1=O"
A) class 1

Q) Determine whether measured RP-LC retention time meets or exceeds 700 s for COCCCNC(=O)C1CCN(C(=O)c2ncn3c2COC(c2ccc(OC)cc2)C3)CC1 (stereo not given)
A) class 0

Q) Determine whether measured RP-LC retention time meets or exceeds 700 s for "O=C(C1CCN(c2nc3ccc(-c4cccc(F)c4)nc3s2)CC1)N1CCCC1"
A) class 1

* * *

experimental details: gradient 5% acetonitrile 3 min, to 50% in 2 min, to 85% in 15 min, held 3 min, 100 µL/min
recorded conditions: column: Zorbax Extend-C18 2.1 x 50 mm; eluents: water / acetonitrile, 0.1% formic acid
Rule for this label: Criterion met means RP-LC retention time is less than 800 s; Criterion not met means RP-LC retention time is at least 800 s.

Q) Consider "CCn1c(=O)c(N2CCC(NC(=O)NCc3ccccc3)CC2)nc2cccnc21" . Does its RP-LC retention time lie strictly below 800 s?
A) Criterion not met

Q) Consider "Cc1cccc(N2CCN(S(=O)(=O)c3ccc(-c4c(C)noc4C)cc3)CC2)c1C" . Does its RP-LC retention time lie strictly below 800 s?
A) Criterion not met

Q) Consider COC(=O)c1sccc1NC(=O)N1CCCC1c1cccc(C)c1 (centres undefined) . Does its RP-LC retention time lie strictly below 800 s?
A) Criterion not met

Q) Consider Cc1cnc(C(=O)N2CCC(N3CC(OCC4CC4)C34CCOCC4)CC2)cn1 (centres undefined) . Does its RP-LC retention time lie strictly below 800 s?
A) Criterion met

Q) Consider "COc1ccccc1/C=C/c1nc(-c2cccc(-c3ccnn3C)c2)no1" . Does its RP-LC retention time lie strictly below 800 s?
A) Criterion not met

Q) Consider O=C1CC(c2nc(-c3ccc4c(c3)OCO4)no2)CN1c1ccc(Cl)cc1 (centres undefined) . Does its RP-LC retention time lie strictly below 800 s?
A) Criterion not met

Q) Consider "CCc1ccc(NC(=O)N(C)CCc2noc(COc3ccccc3)n2)cc1" . Does its RP-LC retention time lie strictly below 800 s?
A) Criterion not met

Q) Consider "CCCn1cc(C(=O)NCc2cccc(C)c2)c(S(=O)(=O)N2CCC(C)CC2)n1" . Does its RP-LC retention time lie strictly below 800 s?
A) Criterion not met

Q) Consider "COc1ccc(S(=O)(=O)Nc2ccc3oc(-c4ccccc4OC)cc(=O)c3c2)cc1" . Does its RP-LC retention time lie strictly below 800 s?
A) Criterion met

Q) Consider "CCCN1C(=O)c2cc(S(=O)(=O)Nc3cc(F)ccc3C)ccc2Oc2cccnc21" . Does its RP-LC retention time lie strictly below 800 s?
A) Criterion not met

Q) Consider COc1cccc(NC(=O)C2CCCN(S(=O)(=O)c3c[nH]c(C(=O)N4CCCCCC4)c3)C2)c1 (centres undefined) . Does its RP-LC retention time lie strictly below 800 s?
A) Criterion not met

Q) Consider "COc1ccc(NC(=O)Cn2nc3cc(C)nc(Nc4cc(C)cc(C)c4)n3c2=O)cc1" . Does its RP-LC retention time lie strictly below 800 s?
A) Criterion not met

Q) Consider "Cc1ccc(NC(=O)Cn2c(N)nc(C)cc2=O)c(C)c1" . Does its RP-LC retention time lie strictly below 800 s?
A) Criterion met

Q) Consider "CCn1cc(S(=O)(=O)N2CC(N(C)Cc3cccnc3)C2)cn1" . Does its RP-LC retention time lie strictly below 800 s?
A) Criterion met

Q) Consider "CCn1cc(C(=O)N[C@H](C(=O)O)C(C)C)c(=O)c2cc3c(cc21)OCO3" . Does its RP-LC retention time lie strictly below 800 s?
A) Criterion met

Q) Consider "Cn1nc2n(c1=O)CCN(C(=O)Cc1ccsc1)CC2" . Does its RP-LC retention time lie strictly below 800 s?
A) Criterion met
